Data credit: patent US20200087363A1

- Assayed system: T1, HLA-B*44:05 (human)
- T1 construct: also called peptide-receptive MHC class I molecule
- Procedure details: UV peptide exchange, anti-b2m ELISA
Observable: peptide exchange yield

Qu. Requested field: peptide exchange yield. Item: `VEVGDRTDW`
Ans. 50 to 75%

Qu. peptide exchange yield for `KEFGIGDLVW` ?
Ans. > 75%

Qu. For the binder `SEVFHVSEA` , what peptide exchange yield is on record?
Ans. 20 to 50%

Qu. Reported peptide exchange yield for `SQDVAGTTF` : what is it?
Ans. 20 to 50%

Qu. Given `RETEDYSKQAL` , state its recorded peptide exchange yield.
Ans. 20 to 50%

Qu. Request the reported peptide exchange yield associated with `AETEEGIYW`
Ans. > 75%

Qu. Entry under review: `HEVAQDDHL` . Reported peptide exchange yield?
Ans. 20 to 50%

Qu. I am curious: what peptide exchange yield value has been reported for `RELRPLFDRQW` ?
Ans. 50 to 75%
